# Tested on: T47D (PI3Kα-H1047R) cell line
# MEASUREMENT DESCRIPTION: HTRF phospho-AKT(S473) cell assay in T47D cells
# Type: cell-based, human
# EXPERIMENTAL CONTEXT: Homo sapiens; HTRF phospho-AKT(S473), T47D (PI3Kα-H1047R) cells, 2 hours compound incubation
pIC50: −log10 of the molar value.
Each entry below lists one item and its recorded pIC50 value.

Consider the worked cases shown below.
# return recorded pIC50 for input "Cc1cc([C@@H](C)Nc2ccc(Cl)nc2C(=O)NS(C)(=O)=O)c2nc(N3CCC(c4nn(C5CC5)cc4F)CC3)n(C)c(=O)c2c1"
6.30 to 6.60

# return recorded pIC50 for input "Cc1cc([C@@H](C)Nc2ccc(Cl)nc2C(=O)NS(C)(=O)=O)c2nc(N3CCC(c4nn(C(F)F)cc4F)CC3)n(C)c(=O)c2c1"
6.30 to 6.60

# return recorded pIC50 for input Cc1cc([C@@H](C)Nc2ccc(Cl)nc2C(=O)NS(C)(=O)=O)c2nc(N3C[C@@H]4C[C@H]3C[C@@H]4c3nn(C)cc3F)n(C)c(=O)c2c1 (relative stereo)
6.30 to 6.60

# return recorded pIC50 for input "Cc1cc([C@@H](C)Nc2ccc(Cl)nc2C(=O)NS(C)(=O)=O)c2nc(N3C[C@@H]4[C@H](C3)[C@H]4c3nn(C)nc3C)n(C)c(=O)c2c1"
> 6.60

***
# return recorded pIC50 for input "Cc1cc([C@@H](C)Nc2ccc(Cl)nc2C(=O)NS(C)(=O)=O)c2nc(N3C[C@@H]4C[C@H]3CN4c3ccc(C#N)cn3)n(C)c(=O)c2c1"
6.30 to 6.60

# return recorded pIC50 for input "Cc1cc([C@@H](C)Nc2ccc(Cl)nc2C(=O)NS(=O)(=O)c2ccc(N(C)C)nc2)c2nc(N3Cc4ccc(F)cc4C3)n(C)c(=O)c2c1"
6.30 to 6.60

# return recorded pIC50 for input "Cc1cc([C@@H](C)Nc2ccc(Cl)nc2C(=O)NS(C)(=O)=O)c2nc(N3CCC(c4nn(C5COC5)cc4F)CC3)n(C)c(=O)c2c1"
6.30 to 6.60

# return recorded pIC50 for input "Cc1cc([C@@H](C)Nc2ccc(Cl)nc2C(=O)NS(C)(=O)=O)c2nc(N3CCC(c4cnn(C(C)C)n4)CC3)n(C)c(=O)c2c1"
6.30 to 6.60

# return recorded pIC50 for input "C[C@@H](Nc1ccc(Cl)nc1C(=O)NS(C)(=O)=O)c1cc(F)cc2c(=O)n(C)c(N3CC[C@@H](Oc4cnn(C)c4)C3)nc12"
> 6.60

# return recorded pIC50 for input "Cc1cc([C@@H](C)Nc2ccc(Cl)nc2C(=O)NS(C)(=O)=O)c2nc(N3CCC(c4nc(C)co4)CC3)n(C)c(=O)c2c1"
> 6.60

# return recorded pIC50 for input "Cc1cc([C@@H](C)Nc2ccc(Cl)nc2C(=O)NS(C)(=O)=O)c2nc(N3CCC(c4ncc(Cl)cn4)CC3)n(C)c(=O)c2c1"
6.30 to 6.60

# return recorded pIC50 for input Cc1cc([C@@H](C)Nc2ccc(Cl)nc2C(=O)NS(C)(=O)=O)c2nc(N3CCC[C@@H](c4nccc(C)n4)C3)n(C)c(=O)c2c1 (relative stereo) [Compound 647]
6.30 to 6.60
